Known superoxide response (% of plate) of a selection of molecules
# Method summary: superoxide lowering in aged yeast cells, pilot screen, validation compound set (AID 2706);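 also: yeast exposed to compound for one week at 30 degrees C before staining; 100% = mean of all compound wells on the same plate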
# Applied conditions: S. cerevisiae aging, superoxide DHE fluorescence; at 10 µM, stronger effect = lower value
// units = %; emit number, no label

Illustrative cases are given below, each with its answer.
COc1ccc(C(=O)OCc2cc3cccc(C)c3[nH]c2=O)cc1 = 112
Cc1c(CCOC(=O)CC23CC4CC(CC(C)(C4)C2)C3)sc[n+]1Cc1ccc([N+](=O)[O-])cc1 = 98.4
CC[n+]1ccc2cc(OC)c(OC)cc2c1Cc1ccc(OC)c(OC)c1 = 98.6
COc1ccc(C)cc1S(=O)(=O)Nc1ccc(F)cc1 = 98.8
COc1ccc(CCN(C)CC(=O)Nc2cc(C)nc3ccccc23)cc1OC = 103
C[C@H]1C[C@H]2[C@@H]3CCC4=CC(=O)C=C[C@]4(C)[C@@]3(Cl)[C@@H](O)C[C@]2(C)[C@@]1(O)C(=O)CO = 85.2
COC(=O)C1=C(C)NC(C)=C(C(=O)OC)C1c1ccccc1[N+](=O)[O-] = 93.7
NC(N)=NC(=O)c1nc(Cl)c(N)nc1N = 87
CC1CNCCN1S(=O)(=O)c1cccc2cnccc12 (stereo not given) = 91.3
O=c1oc2c(CN3CCN(CCO)CC3)c(O)ccc2cc1-c1ccccn1 = 88.3

Asked: Could you share which superoxide response (% of plate) value was measured for CC(C)OC(=O)CC1C(=O)NCCN1C(=S)NC(=O)c1cccs1 (stereo not given) ?
Given back: 87.2

Asked: Now give it for CCCCC[C@H](O)/C=C/[C@@H]1[C@@H](C/C=C\CCCC(=O)O)[C@H]2CO[C@@H]1C2 too.
Given back: 110

Asked: Now give it for Cc1cc(C(C)(C)C)cc(C)c1CC1=NCCN1 too.
Given back: 104

Asked: Now give it for COc1ccc2c(c1OC)C(=O)NC(C)=C(C(=O)OC(C)(C)C)C2O (stereo not given) too.
Given back: 97.2

Asked: Now give it for C[C@H]1O[C@H]1P(=O)(O)O too.
Given back: 95.9

Asked: Now give it for Cn1c2ccc(CC(=O)O)cc2c2cc(CC(=O)O)ccc21 too.
Given back: 92.3

Asked: Now give it for CC(=O)Nc1cc(O)cc(O)c1 too.
Given back: 99.3

Asked: Now give it for CCCCNc1cc(C(=O)O)cc(S(N)(=O)=O)c1Oc1ccccc1 too.
Given back: 96.1

Asked: Now give it for COCCn1c(/C=C/c2ccccc2)nc2ccccc21 too.
Given back: 92.6

Asked: Now give it for Cc1nc(C(=O)Nc2ccccc2Cl)cc2c1[nH]c1ccccc12 too.
Given back: 111

* * *

# Method summary: yeast TOR pathway RPL19A-GFP modulators, primary screen, cell-based, S. cerevisiae, multiplex flow cytometry (AID 1862);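 also: lower values mimic rapamycin by blocking the RPL19A rise seen in DMSO cells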
# Applied conditions: S. cerevisiae RPL19A-GFP strain, flow cytometry fluorescence, 3 h; at 10 µM; stronger effect = lower value
Inconclusive results are not listed.
Known percent of DMSO control GFP of a selection of molecules
// units = %; emit number, no label

Illustrative cases are given below, each with its answer.
CCOC(=O)c1ccc2[nH]c(C)c(CCC(C)=O)c(=O)c2c1 = 102
CC(C)[N+]1(C)[C@@H]2CC[C@H]1CC(OC(=O)C(CO)c1ccccc1)C2 (some centres not stated) = 101

# context switch: different molecule, same percent of DMSO control GFP
Asked: Could you share which percent of DMSO control GFP value was measured for CC1(C)S[C@@H]2[C@H](NC(=O)C(C(=O)O)c3ccccc3)C(=O)N2[C@H]1C(=O)O (some centres not stated) ?
Given back: 96.3
